% inhibition of BACE1 activity, short FRET substrate values by entry
Biological target: murine BACE1 ECD; further: test concentration or dose not given here
Sequence (single chain, as listed by the source limits assumed): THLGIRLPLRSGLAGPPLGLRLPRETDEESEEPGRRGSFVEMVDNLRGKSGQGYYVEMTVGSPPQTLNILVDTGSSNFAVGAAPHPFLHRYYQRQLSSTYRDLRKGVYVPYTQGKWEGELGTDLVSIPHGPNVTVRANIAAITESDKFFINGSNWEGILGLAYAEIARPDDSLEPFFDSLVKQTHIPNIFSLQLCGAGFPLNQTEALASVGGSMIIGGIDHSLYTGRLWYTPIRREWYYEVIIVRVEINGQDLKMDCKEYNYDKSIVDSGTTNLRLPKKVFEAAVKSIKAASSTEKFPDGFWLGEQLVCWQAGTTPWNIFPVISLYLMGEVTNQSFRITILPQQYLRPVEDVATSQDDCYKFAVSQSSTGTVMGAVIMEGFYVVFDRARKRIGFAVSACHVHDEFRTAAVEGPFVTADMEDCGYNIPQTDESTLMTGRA
Experiment: cell-based or functional assay
// units = %; emit number, no label

Worked cases, answers included:
* 5890 (antibody, V domains shown, anti-BACE1 IgG) VH: QVQLVQSGAEVKKPGSSVKVSCKASGGTFSSYAISWVRQAPGQGLEWMGNIIPGFGTANYAQKFQGRVTITADESTSTAYMELSSLRSEDTAVYYCARSGGTKYGMLDVWGQGTMVTVSS VL: EIVMTQSPATLSVSPGERATLSCRASQSVGSNLAWYQQKPGQAPRLLIYGASTRATGIPARFSGSGSGTEFTLTISSLQSEDFAVYYCQQLYTWPPRTFGGGTKVEIK | 69
* 5644 (antibody, V domains shown, anti-BACE1 IgG) VH: QLQLQESGPGLVKPSETLSLTCTVSGGSISSSSYYWGWIRQPPGKGLEWIGSIYYSGSTYYNPSLKSRVTISVDTSKNQFSLKLSSVTAADTAVYYCARVGHGISYFDLWGRGTLVTVSS VL: EIVLTQSPATLSLSPGERATLSCRASQSVSSYLAWYQQKPGQAPRLLIYDASKRATGIPARFSGSGSGTDFTLTISSLEPEDFAVYYCQQVYTWPPRTFGGGTKVEIK | 63

# query: % inhibition of BACE1 activity, short FRET substrate of entry 5884 (antibody, V domains shown, anti-BACE1 IgG) VH: QVQLVQSGAEVKKPGSSVKVSCKASGGTFSGYGISWVRQAPGQGLEWMGNIIPGFGTANYAQKFQGRVTITADESTSTAYMELSSLRSEDTAVYYCARSGGTKYGMLDVWGQGTMVTVSS VL: EIVMTQSPATLSVSPGERATLSCRASQSVSSNLAWYQQKPGQAPRLLIYGASTRATGIPARFSGSGSGTEFTLTISSLQSEDFAVYYCQQLILWPPRTFGGGTKVEIK
-243
